# Target System: menin (Flag tagged) and biotinylated MLL1 peptide (1-46aa) (Homo sapiens, UniProt O00255)
# Sequence (O00255 1-610): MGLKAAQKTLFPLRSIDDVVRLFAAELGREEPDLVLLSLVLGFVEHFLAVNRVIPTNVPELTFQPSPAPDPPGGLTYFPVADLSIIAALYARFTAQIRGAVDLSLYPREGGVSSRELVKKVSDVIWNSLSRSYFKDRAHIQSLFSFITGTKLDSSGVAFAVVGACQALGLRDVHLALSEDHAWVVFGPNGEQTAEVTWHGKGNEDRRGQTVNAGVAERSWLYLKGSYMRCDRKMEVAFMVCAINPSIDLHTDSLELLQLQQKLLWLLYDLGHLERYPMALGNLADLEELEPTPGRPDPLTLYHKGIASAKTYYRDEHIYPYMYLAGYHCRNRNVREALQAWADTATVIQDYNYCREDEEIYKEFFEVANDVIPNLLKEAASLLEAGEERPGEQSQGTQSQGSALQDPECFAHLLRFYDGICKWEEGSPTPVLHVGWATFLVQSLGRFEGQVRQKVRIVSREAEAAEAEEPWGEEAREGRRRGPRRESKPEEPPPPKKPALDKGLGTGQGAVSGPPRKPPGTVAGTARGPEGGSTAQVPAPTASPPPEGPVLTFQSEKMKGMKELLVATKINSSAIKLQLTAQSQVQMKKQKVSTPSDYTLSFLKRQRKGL
Structures can show the parent of a compound that is named as a salt.
Value Kind: IC50 (nM)

>>> readout_number("FC(F)(F)Cc1cc2c(N[C@@H]3CCC[C@H](NCc4ccc(NC5CCCCC5)cc4)C3)ncnc2s1 [Example 44, hydrochloride]")
335
